measured.on: human vascular endothelial growth factor receptor 2 (VEGF-R2) (Homo sapiens, UniProt P35968, DEL940-989/E990V)
Construct: VEGF-R2D50 contains residues 806-939 and 990-1171
Sequence (P35968 with tags, fused parts or gaps DEL940-989/E990V limits assumed): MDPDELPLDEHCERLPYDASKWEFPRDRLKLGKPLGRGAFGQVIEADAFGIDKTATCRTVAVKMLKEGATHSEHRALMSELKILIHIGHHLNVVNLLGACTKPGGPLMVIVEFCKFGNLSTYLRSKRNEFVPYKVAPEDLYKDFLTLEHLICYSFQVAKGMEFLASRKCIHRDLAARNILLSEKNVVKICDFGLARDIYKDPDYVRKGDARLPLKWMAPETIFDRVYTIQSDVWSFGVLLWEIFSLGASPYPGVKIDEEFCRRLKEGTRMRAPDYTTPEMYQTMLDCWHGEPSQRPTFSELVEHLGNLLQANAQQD
test.summary: VEGF-R2 coupled spectrophotometric assay (FLVK)
reported.conditions: unphosphorylated VEGF-R2D50 (FLVK)
Description: This construct determines the ability of a test compound to inhibit tyrosine kinase activity. […] The production of ADP from ATP that accompanies phosphoryl transfer was coupled to oxidation of NADH using phosphoenolpyruvate (PEP) and a system having pyruvate kinase (PK) and lactic dehydrogenase (LDH). The oxidation of NADH was monitored by following the decrease of absorbance at 340 nm (e340=6.22 cm^−1 mM^−1) using a Beckman DU 650 spectrophotometer. […]
quantity.name: Ki

compound	Ki
O=C(NCCN1CCOCC1)c1cccc2cc(Oc3ncnc4ccsc34)ccc12 [Example 52]	> 10 nM

Requested field: Ki. Item: O=C(NCCCN1CCOCC1)c1cccc2cc(Oc3ccnc4cc(C(=O)N5CCC5)sc34)ccc12 [Example 32]
< 1 nM

Requested field: Ki. Item: CNC(=O)c1cccc2cc(Oc3ccnc4cc(C(=O)N(C)CCN(C)C)sc34)ccc12 [Example 6]
< 1 nM

Requested field: Ki. Item: CNC(=O)c1cccc2cc(Oc3ccnc4cc(OC)ccc34)ccc12 [Example 43]
1 to 10 nM

Requested field: Ki. Item: O=C(Nc1ccc(N2CCOCC2)nc1)c1cccc2cc(Oc3ccnc4ccsc34)ccc12 [Example 35]
< 1 nM

Requested field: Ki. Item: CN(C)[C@@H]1CCN(C(=O)c2cc3nccc(Oc4ccc5c(C(=O)NC6CC6)cccc5c4)c3s2)C1 [Example 9]
< 1 nM

Requested field: Ki. Item: COCCNC(=O)c1cccc2cc(Oc3ccnc4cc(C(=O)N5CC[C@@H](N(C)C)C5)sc34)ccc12 [Example 11]
1 to 10 nM

Requested field: Ki. Item: O=C(NCCCN1CCCCC1)c1cccc2cc(Oc3ccnc4ccsc34)ccc12 [Example 36]
> 10 nM

---

Test system: human umbilical vein endothelial cells (HUVEC)
test.summary: HUVEC+VEGF Proliferation Assay
Format: cell-based
reported.conditions: VEGF-stimulated proliferation, final VEGF 6 ng/mL, 72 hours, MTT dye reduction
pIC50: −log10 of the molar value.
Catalogue of pIC50 readings, one per entry.

Worked examples follow.
record.smiles	pIC50
O=C(NCCN1CCOCC1)c1cccc2cc(Oc3ccnc4cc(C(=O)N5CC[C@@H](O)C5)sc34)ccc12	8.00 to 9.00
CNC(=O)c1cccc2c(F)c(Oc3ccnc4cc(C(=O)N(C)C)sc34)ccc12	> 9.00
CNC(=O)c1cccc2cc(Oc3ccnc4cc(C(=O)N5CC[C@H](OC)C5)sc34)ccc12	> 9.00

Requested field: pIC50. Item: `O=C(NCCCN1CCOCC1)c1cccc2cc(Oc3ccnc4cc(C(=O)N5CCC5)sc34)ccc12`
8.00 to 9.00

Requested field: pIC50. Item: `COc1ccc2c(Oc3ccc4c(C(=O)NC(C)C)cccc4c3)ccnc2c1`
< 8.00

Requested field: pIC50. Item: `O=C(Nc1ccc(N2CCC(O)CC2)nc1)c1cccc2cc(Oc3ccnc4ccsc34)ccc12`
8.00 to 9.00

Requested field: pIC50. Item: `CCCCNC(=O)c1cccc2cc(Oc3ccnc4cc(OCCN5CCCC5)ccc34)ccc12`
8.00 to 9.00

Requested field: pIC50. Item: `CNC(=O)c1cccc2cc(Oc3ccnc4cc(C(=O)N(C)C)sc34)ccc12`
8.00 to 9.00

Data provenance is patent US20050070508A1.
